pKi: −log10 of the molar value.
Compiled from multiple publications: pKi readings for Aurora kinase A (Homo sapiens).

CCN(CC)c1ccc(NN=C2C(=O)NN=C2c2ccc(OCc3ccccc3)c(OC)c2)cc1
6.00 to 7.00
Cc1cnc2c(-c3cc(N4CCCCC4)ncn3)c(N)nn2c1
5.30 to 6.30
Cc1cc(Nc2nc(-c3cccc(C)c3C)nc3ccccc23)n[nH]1
> 7.00
CCC(=O)Nc1ccc(Sc2nc(Nc3cc(C)n[nH]3)cc(N3CCC(O)(CC)CC3)n2)cc1
≥ 8.00

Would you mind telling me what pKi value was observed for Nc1nn2cc(-c3ccc(C(=O)N4CCC[C@@H](O)C4)cn3)cnc2c1-c1ccccn1 ?
> 6.30

----------
pKi: −log10 of the molar value.
Compiled from multiple publications: pKi readings for Aurora kinase A (Homo sapiens, UniProt O14965).

c1ccc2cc(Sc3nc4c(c(Nc5cc(C6CC6)[nH]n5)n3)CCCC4)ccc2c1
> 7.00
NC(=O)[C@@H]1[C@H](Nc2nc(Nc3cnn(CC(=O)O)c3)ncc2Cl)[C@H]2C=C[C@@H]1C2
> 7.00
NC(=O)[C@@H]1[C@H](Nc2nc(Nc3cnn(Cc4cccc(Cl)c4)c3)ncc2Cl)[C@H]2C=C[C@@H]1C2
> 7.00
Cc1n[nH]c(Nc2nc(-c3ccccc3)nc3ccccc23)c1Br
6.00 to 7.00
Cc1cc(Nc2cc(N3CCOCC3)nc(SCc3ccc4ccccc4c3)n2)n[nH]1
5.00 to 6.00
c1ccc2[nH]c(Sc3nc(Nc4cc(C5CC5)[nH]n4)c4ccccc4n3)nc2c1
> 7.00
Nc1nn2cc(-c3cccc(CO)c3)cnc2c1-c1ccccn1
5.30 to 6.30
Cc1cnc(Nc2cc(N3CCC[C@H](N(C)C)C3)nc(Sc3ccc(NC(=O)C4CC4)cc3)n2)s1
7.30 to 8.00
NC(=O)[C@@H]1[C@H](Nc2nc(Nc3cnn(CC(F)(F)F)c3)ncc2C(F)(F)F)[C@H]2C=C[C@@H]1C2 (racemic)
> 7.00
CN1CCCN(c2ccc(-c3cnc4c(-c5ccccn5)c(N)nn4c3)cn2)CC1
5.30 to 6.30

pKi of Nc1nn2cc(-c3cccc(C(=O)N4CCC[C@H]4CN4CCCC4)n3)cnc2c1-c1ccccn1 on Aurora kinase A (Homo sapiens, UniProt O14965)?
5.30 to 6.30

pKi of CC1CCN(c2nc(Nc3cc(C4CC4)n[nH]3)c3ccccc3n2)CC1 on Aurora kinase A (Homo sapiens, UniProt O14965)?
> 7.00

pKi of N#Cc1ccccc1-c1nc(Nc2n[nH]c3ccccc23)c2ccccc2n1 on Aurora kinase A (Homo sapiens, UniProt O14965)?
4.70 to 6.00

pKi of CN(C)Cc1cccc(-c2cnc3c(-c4ccccn4)c(N)nn3c2)c1 on Aurora kinase A (Homo sapiens, UniProt O14965)?
5.30 to 6.30

----------
Compiled from multiple publications: pKi readings for Aurora kinase A (Homo sapiens).
pKi: −log10 of the molar value.

Solved cases (4 shown):
NC(=O)[C@@H]1[C@H](Nc2nc(Nc3cnn(Cc4ccccc4)c3)ncc2Br)[C@H]2C=C[C@@H]1C2
> 7.00
Clc1cccc(Sc2nc(Nc3cc(C4CC4)[nH]n3)c3ccccc3n2)c1
> 7.00
COc1ccc(C2=NNC(=O)/C2=N\Nc2ccc(N(C)C)cc2)cc1OC
> 7.00
CCc1cc(Nc2cc(C)[nH]n2)nc(C(C)(C)c2ccccc2)n1
6.00 to 7.00

pKi of Cc1cc(Nc2cc(N3CCC4(CC3)OCCO4)nc(Sc3ccc(NC(=O)CC(F)(F)F)cc3)n2)[nH]n1 on Aurora kinase A (Homo sapiens)?
≥ 8.00

pKi of NC(=O)[C@@H]1[C@H](Nc2nc(Nc3cnn(Cc4ccc(Cl)cc4)c3)ncc2Br)[C@H]2C=C[C@@H]1C2 on Aurora kinase A (Homo sapiens)?
> 7.00

pKi of Nc1nn2cc(-c3ccc(C(=O)N4CCC4)cn3)cnc2c1-c1ccccn1 on Aurora kinase A (Homo sapiens)?
5.30 to 6.30

pKi of Cc1cc(Nc2nc(Nc3ccc(N)cc3)nc3ccccc23)n[nH]1 on Aurora kinase A (Homo sapiens)?
6.00 to 7.00

pKi of CNC(=O)Cn1cc(Nc2ncc(Cl)c(N[C@@H]3[C@H]4CC[C@H](C4)[C@@H]3C(N)=O)n2)cn1 on Aurora kinase A (Homo sapiens)?
> 7.00

----------
Compiled from multiple publications: pKi readings for UniProt:O14965.
pKi: −log10 of the molar value.

Solved cases (3 shown):
COc1ccc(Oc2nc(Nc3cc(C)[nH]n3)c3ccccc3n2)cc1OC
> 7.00
Cc1cnc(Nc2cc(N3CCC(N4CCCC4)CC3)nc(Sc3ccc(NC(=O)C4CC4)cc3)n2)s1
≥ 8.00
OC1(c2ccccc2)CCN(c2nc(Nc3cc(C4CC4)n[nH]3)c3ccccc3n2)CC1
> 7.00

pKi of Cc1cnc(Nc2cnn(C)c2)nc1N[C@@H]1[C@H](C(N)=O)[C@H]2C=C[C@@H]1C2.Cc1cnc(Nc2cnn(C)c2)nc1N[C@H]1[C@@H](C(N)=O)[C@@H]2C=C[C@H]1C2 (mixture of isomers) on UniProt:O14965?
6.00 to 7.00

pKi of c1ccc2c(Nc3cc(C4CC4)[nH]n3)nc(Nc3ccc4[nH]ncc4c3)nc2c1 on UniProt:O14965?
> 7.00

----------
pKi: −log10 of the molar value.
Compiled from multiple publications: pKi readings for Aurora kinase A (Homo sapiens).

CN(C)CC(=O)N1CCC(n2cc(Nc3ncc(Cl)c(N[C@H]4[C@@H](C(N)=O)[C@@H]5C=C[C@H]4C5)n3)cn2)CC1
> 7.00
Cn1cc(Nc2ncc(C(F)(F)F)c(Nc3ccsc3C(N)=O)n2)cn1
> 7.00
CCc1cccc(Nc2nc(Nc3cc(C)[nH]n3)c3ccccc3n2)c1
> 7.00

pKi of Nc1nn2cc(-c3ccc(C(=O)NC4CCCO4)cn3)cnc2c1-c1ccccn1 (stereo not drawn) on Aurora kinase A (Homo sapiens)?
5.30 to 6.30

pKi of Cc1cc(Nc2nc(Sc3ccc(C(=O)NCCN4CCOCC4)cc3)nc3ccccc23)n[nH]1 on Aurora kinase A (Homo sapiens)?
6.00 to 7.00

pKi of c1ccc(-c2cccc(Nc3nc(Nc4cc(C5CC5)[nH]n4)c4ccccc4n3)c2)cc1 on Aurora kinase A (Homo sapiens)?
> 7.00

pKi of Cc1cnc2[nH]cc(-c3oncc3-c3cccc(F)c3F)c2c1 on Aurora kinase A (Homo sapiens)?
6.00 to 6.70

pKi of Cc1nn(C)c(C)c1Nc1ncc(Cl)c(N[C@H]2[C@@H](C(N)=O)[C@@H]3C=C[C@H]2C3)n1 on Aurora kinase A (Homo sapiens)?
6.00 to 7.00

pKi of Nc1nn2cc(-c3cccc(CN4CCOCC4)c3)cnc2c1-c1ccccn1 on Aurora kinase A (Homo sapiens)?
5.30 to 6.30
